Target: COX-3 (Canis lupus familiaris, UniProt Q8HZR1, E597Q)
Construct: V5-His (vector name only); expressed in transfected cells; host or cells: Sf9 insect cells infected with recombinant baculovirus (pBlueBac 4.5/V5-His)
Sequence (Q8HZR1 1-633 isoform Q8HZR1-2 E627Q): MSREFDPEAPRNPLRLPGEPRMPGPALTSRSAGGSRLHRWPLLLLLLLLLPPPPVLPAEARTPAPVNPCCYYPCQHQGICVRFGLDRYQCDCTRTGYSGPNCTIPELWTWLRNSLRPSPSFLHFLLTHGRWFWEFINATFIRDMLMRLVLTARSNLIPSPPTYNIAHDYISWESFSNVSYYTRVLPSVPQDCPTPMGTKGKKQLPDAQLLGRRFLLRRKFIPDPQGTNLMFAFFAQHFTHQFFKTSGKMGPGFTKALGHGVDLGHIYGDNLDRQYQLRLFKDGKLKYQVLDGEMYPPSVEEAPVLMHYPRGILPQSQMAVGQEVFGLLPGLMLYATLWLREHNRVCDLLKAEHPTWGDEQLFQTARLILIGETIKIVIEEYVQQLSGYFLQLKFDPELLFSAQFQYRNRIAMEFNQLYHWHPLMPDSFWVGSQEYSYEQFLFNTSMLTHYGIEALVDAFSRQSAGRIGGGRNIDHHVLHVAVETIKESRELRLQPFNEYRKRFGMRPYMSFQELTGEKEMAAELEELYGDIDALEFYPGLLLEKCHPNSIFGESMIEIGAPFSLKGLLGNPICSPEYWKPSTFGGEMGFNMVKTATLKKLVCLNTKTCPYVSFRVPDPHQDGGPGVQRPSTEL
Test: COX activity (PGE2 formation by RIA) in insect cells expressing COX-3, drug inhibition
Assay type: cell-based, canine
Details: IC50, μM COX-3, 30 mM arachidonic acid; insect cells, PGE2 by RIA
measured.metric: IC50 (µM)
Number only, in µM; omit the unit.

## Task Please give the measured IC50 for this molecule: Cc1cc(=O)n(-c2ccccc2)n1C [Antipyrine]
## Result 863

---

Biological target: COX-3 (Canis lupus familiaris, UniProt Q8HZR1, E597Q)
Construct: V5-His (vector name only); expressed in transfected cells; host or cells: Sf9 insect cells infected with recombinant baculovirus (pBlueBac 4.5/V5-His)
Test: COX activity (PGE2 formation by RIA) in insect cells expressing COX-3, drug inhibition
Format: cell-based, canine
Settings: IC50 value for COX-3, substrate conditions of 30 μM arachidonic acid
Experimental: Both COX-3 and PCOX-1a were cloned into the baculovirus expression vector pBlueBac 4.5/V5-His (Invitrogen). Sf9 cells (˜1×10^6) were infected with viral stocks at a multiplicity of infection (MOI) of 3 for expression of COX-3, PCOX-1a, mouse COX-1 and mouse COX-2. Sf9 cells were infected with a high titer viral stock at a MOI of3 and cultured for 48 hr. […] Inhibition curves were constructed and IC50 values were determined using Prism® 3.0 (GraphPad, San Diego).
measured.metric: IC50 (µM)
Answer format: numeric, µM implied, no suffix.

## Task What value of IC50 has been recorded for this entry: Cc1cc(=O)n(-c2ccccc2)n1C [Antipyrine]
## Result 862

---

Biological target: mouse COX-1 (Mus musculus)
Construct: expressed in transfected cells; host or cells: Sf9 insect cells infected with recombinant baculovirus
Assay: COX activity (PGE2 formation by RIA) in insect cells expressing COX-1, drug inhibition
Assay type: cell-based
Details: 30 μM arachidonic acid; insect cells, PGE2 by RIA; read-out: IC50, μM COX-1
measured.metric: IC50

These recorded examples may help you get a feel for the data.
INSERT INTO assay_data (molecule, measured_metric, assay_value) VALUES
  ('Cc1c(N(C)CS(=O)(=O)[O-])c(=O)n(-c2ccccc2)n1C.[Na+]', 'IC50', '350 µM'),
  ('Cc1c(N(C)C)c(=O)n(-c2ccccc2)n1C [Aminopyrine, 4-dimethylaminoantipyrine]', 'IC50', '> 1000 µM'),
  ('Cn1c(=O)c2c(ncn2C)n(C)c1=O', 'IC50', '> 1000 µM'),
  ('O=C1CCC(N2C(=O)c3ccccc3C2=O)C(=O)N1 (centres unmarked) [Thalidomide]', 'IC50', '> 1000 µM');

Turning now to a further molecule:
## Task Quick one: IC50 of CCOc1ccc(NC(C)=O)cc1 ?
## Result > 1000 µM

---

Biological target: mouse COX-1 (Mus musculus)
Construct: expressed in transfected cells; host or cells: Sf9 insect cells infected with recombinant baculovirus
Sequence (P22437 27-602): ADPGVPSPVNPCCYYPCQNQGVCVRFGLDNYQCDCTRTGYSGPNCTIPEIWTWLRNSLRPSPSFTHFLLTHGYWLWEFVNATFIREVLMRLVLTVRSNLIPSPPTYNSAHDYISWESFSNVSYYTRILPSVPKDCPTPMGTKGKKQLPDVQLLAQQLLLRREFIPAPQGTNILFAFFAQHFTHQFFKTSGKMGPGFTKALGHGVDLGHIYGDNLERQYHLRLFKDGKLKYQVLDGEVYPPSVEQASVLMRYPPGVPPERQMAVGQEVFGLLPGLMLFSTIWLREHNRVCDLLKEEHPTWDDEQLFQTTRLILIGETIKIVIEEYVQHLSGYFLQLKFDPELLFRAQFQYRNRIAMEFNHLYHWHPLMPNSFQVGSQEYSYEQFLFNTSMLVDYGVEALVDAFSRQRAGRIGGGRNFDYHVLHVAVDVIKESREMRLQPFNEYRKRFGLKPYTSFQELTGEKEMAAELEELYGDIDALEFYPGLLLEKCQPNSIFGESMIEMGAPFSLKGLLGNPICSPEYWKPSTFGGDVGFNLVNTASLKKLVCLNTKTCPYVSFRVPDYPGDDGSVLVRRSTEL
Experiment: COX activity (PGE2 formation by RIA) in insect cells expressing COX-1, drug inhibition
Format: cell-based
Protocol: Both COX-3 and PCOX-1a were cloned into the baculovirus expression vector pBlueBac 4.5/V5-His (Invitrogen). Sf9 cells (˜1×10^6) were infected with viral stocks at a multiplicity of infection (MOI) of 3 for expression of COX-3, PCOX-1a, mouse COX-1 and mouse COX-2. Sf9 cells were infected with a high titer viral stock at a MOI of3 and cultured for 48 hr. […] Inhibition curves were constructed and IC50 values were determined using Prism® 3.0 (GraphPad, San Diego).
measured.metric: pIC50
Note on units: pIC50 is unitless, being -log10 of a concentration expressed in mol/L.

## Task Reported pIC50 for mouse COX-1 (Mus musculus), given O=C(O)Cc1ccccc1Nc1c(Cl)cccc1Cl [Diclofenac] ?
## Result 7.46

---

Molecular target: mouse COX-2 (Mus musculus)
Construct: expressed in transfected cells; host or cells: Sf9 insect cells infected with recombinant baculovirus
Sequence (Q05769 18-604): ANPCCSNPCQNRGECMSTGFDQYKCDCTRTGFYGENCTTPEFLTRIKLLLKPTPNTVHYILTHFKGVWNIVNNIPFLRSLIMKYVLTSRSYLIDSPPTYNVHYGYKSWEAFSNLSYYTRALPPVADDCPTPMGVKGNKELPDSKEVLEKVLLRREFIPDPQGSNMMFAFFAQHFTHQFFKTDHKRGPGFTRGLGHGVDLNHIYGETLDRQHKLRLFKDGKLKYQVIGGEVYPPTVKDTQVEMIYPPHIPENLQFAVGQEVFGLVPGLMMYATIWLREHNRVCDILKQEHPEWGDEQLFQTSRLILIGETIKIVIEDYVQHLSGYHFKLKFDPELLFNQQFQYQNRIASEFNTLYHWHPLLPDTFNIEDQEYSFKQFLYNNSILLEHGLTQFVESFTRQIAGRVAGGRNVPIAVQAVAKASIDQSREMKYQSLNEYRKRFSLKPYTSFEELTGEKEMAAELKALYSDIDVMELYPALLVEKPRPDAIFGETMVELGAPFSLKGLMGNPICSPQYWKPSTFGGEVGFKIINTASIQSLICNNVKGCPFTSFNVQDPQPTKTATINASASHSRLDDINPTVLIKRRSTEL
Assay: COX activity (PGE2 formation by RIA) in insect cells expressing COX-2, drug inhibition
Format: cell-based
measured.metric: IC50

## Task Please look up its IC50: Cc1cc(=O)n(-c2ccccc2)n1C [Antipyrine]
## Result > 1000 µM

---

Target: COX-3 (Canis lupus familiaris, UniProt Q8HZR1, E597Q)
Construct: V5-His (vector name only); expressed in transfected cells; host or cells: Sf9 insect cells infected with recombinant baculovirus (pBlueBac 4.5/V5-His)
Sequence (Q8HZR1 1-633 isoform Q8HZR1-2 E627Q): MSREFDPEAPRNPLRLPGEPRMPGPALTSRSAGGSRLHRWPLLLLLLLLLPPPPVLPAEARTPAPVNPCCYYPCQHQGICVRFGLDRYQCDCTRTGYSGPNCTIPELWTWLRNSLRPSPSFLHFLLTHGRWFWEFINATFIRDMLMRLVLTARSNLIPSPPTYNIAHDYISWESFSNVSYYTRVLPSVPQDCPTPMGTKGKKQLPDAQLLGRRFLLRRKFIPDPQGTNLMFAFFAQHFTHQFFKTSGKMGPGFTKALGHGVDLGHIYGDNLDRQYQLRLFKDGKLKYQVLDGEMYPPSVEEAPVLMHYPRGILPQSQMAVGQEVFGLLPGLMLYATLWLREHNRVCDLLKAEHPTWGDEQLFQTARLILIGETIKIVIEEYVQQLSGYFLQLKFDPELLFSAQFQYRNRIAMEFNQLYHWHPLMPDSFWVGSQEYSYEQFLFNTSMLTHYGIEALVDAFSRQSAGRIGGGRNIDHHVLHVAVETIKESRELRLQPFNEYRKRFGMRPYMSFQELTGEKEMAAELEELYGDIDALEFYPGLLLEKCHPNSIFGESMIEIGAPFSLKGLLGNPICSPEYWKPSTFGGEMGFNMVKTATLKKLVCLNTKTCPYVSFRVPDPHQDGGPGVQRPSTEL
Experiment: COX activity (PGE2 formation by RIA) in insect cells expressing COX-3, drug inhibition
Assay type: cell-based, canine
Settings: substrate conditions of 30 μM arachidonic acid; read-out: IC50 value for COX-3
The reader will find reported pIC50 values listed item by item below.
Expect pIC50 as a plain number equal to -log10 of the molar concentration.

INSERT INTO measurements (compound, measured_metric, assay_value) VALUES
  ('CCOc1ccc(NC(C)=O)cc1', 'pIC50', 3.99),
  ('Cc1c(N(C)CS(=O)(=O)[O-])c(=O)n(-c2ccccc2)n1C.[Na+]', 'pIC50', 4.28);

## Task Please look up its pIC50: Cc1c(N(C)C)c(=O)n(-c2ccccc2)n1C [Aminopyrine, 4-dimethylaminoantipyrine]
## Result 3.16
